- Test system: Rattus norvegicus
- Experiment description: Percentage fall in systolic blood pressure after 3 hours at 50 mg/kg given perorally
- Assay type: functional, Artery
- Applied conditions: route oral
Field: Decrease in SBP. Provide a value for each of the compounds that follow.
Numbers only here, please. The scale is %.

Missing value: Decrease in SBP, Rattus norvegicus, entry CC1OC2(CCN(CCc3c[nH]c4ccccc34)CC2)CNC1=O (configuration not stated) . Fill in?
21

Follow-up entry: CC(=O)NCC1CCN(CCc2c[nH]c3ccccc23)CC1
15

Follow-up entry: COCC(=O)NCC1CCN(CCc2c[nH]c3ccccc23)CC1
13

Follow-up entry: CCC1OC2(CCN(CCc3c[nH]c4ccccc34)CC2)CNC1=O (configuration not stated)
15

Follow-up entry: O=C1COC2(CCN(CCc3c[nH]c4ccccc34)CC2)CN1
48

Follow-up entry: CCN1CC2(CCN(CCc3c[nH]c4ccccc34)CC2)OCC1=O
28

Follow-up entry: CCC(=O)NCC1CCN(CCc2c[nH]c3ccccc23)CC1
15

Follow-up entry: COC1(CNC(=O)c2ccccc2)CCN(CCc2c[nH]c3ccccc23)CC1
22

Follow-up entry: CCC1NC(=O)COC12CCN(CCc1c[nH]c3ccccc13)CC2 (configuration not stated)
41

Follow-up entry: CCCN1CC2(CCN(CCc3c[nH]c4ccccc34)CC2)OCC1=O
22

Follow-up entry: CC1NC(=O)COC12CCN(CCc1c[nH]c3ccccc13)CC2 (configuration not stated)
41

Follow-up entry: O=C1COC2(CCN(CCc3c[nH]c4ccccc34)CC2)CN1c1ccccc1
45

* * *

- Test system: Rattus norvegicus
- Experiment description: Percentage fall in systolic blood pressure after 2 hours at 50 mg/kg given perorally
- Type: functional, Artery
- Applied conditions: route oral
Field: Decrease in SBP. Provide a value for each of the molecules that follow.
Numbers only here, please. The scale is %.

// lookup Decrease in SBP for CN1CC2(CCN(CCc3c[nH]c4ccccc34)CC2)OCC1=O
44

Follow-up entry: COC1(CNC(=O)c2ccccc2)CCN(CCc2c[nH]c3ccccc23)CC1
28

Follow-up entry: CC1OC2(CCN(CCc3c[nH]c4ccccc34)CC2)CNC1=O (stereo unspecified)
36

Follow-up entry: CC1NC(=O)COC12CCN(CCc1c[nH]c3ccccc13)CC2 (stereo unspecified)
48

Follow-up entry: CCCN1CC2(CCN(CCc3c[nH]c4ccccc34)CC2)OCC1=O
22

Follow-up entry: O=C1COC2(CCN(CCc3c[nH]c4ccccc34)CC2)C(c2ccccc2)N1 (stereo unspecified)
19

Follow-up entry: CCC(=O)NCC1CCN(CCc2c[nH]c3ccccc23)CC1
23

Follow-up entry: CCN1CC2(CCN(CCc3c[nH]c4ccccc34)CC2)OCC1=O
33

Follow-up entry: NCC1CCN(CCc2c[nH]c3ccccc23)CC1
24

Follow-up entry: CC1N(C)C(=O)COC12CCN(CCc1c[nH]c3ccccc13)CC2 (stereo unspecified)
22

Follow-up entry: CCC1OC2(CCN(CCc3c[nH]c4ccccc34)CC2)CNC1=O (stereo unspecified)
23

Follow-up entry: COCC(=O)NCC1CCN(CCc2c[nH]c3ccccc23)CC1
18

Follow-up entry: CCC1NC(=O)COC12CCN(CC(O)C1COc3ccccc3O1)CC2 (stereo unspecified)
44

Follow-up entry: O=C1COC2(CCN(CCc3c[nH]c4ccccc34)CC2)CN1
48

Follow-up entry: CC(=O)NCC1CCN(CCc2c[nH]c3ccccc23)CC1
26

Follow-up entry: O=C(NCC1CCN(CCc2c[nH]c3ccccc23)CC1)c1ccccc1
27
